system: U2OS; assay: cell viability relative to DMSO; higher = less toxic; details: 72 h; 10 nM
measured-attribute: cell viability

compound | measured-attribute | endpoint-result
O=C(COc1ccc(Cl)cc1)N[C@H]1CC[C@H](NC(=O)COc2ccc(Cl)cc2)CC1 | cell viability | 96.2%
O=C(Oc1ccccc1C(=O)O)c1ccccc1O | cell viability | 98.6%
CCCN(CCC)C(=O)C1=Cc2ccc(-c3ccc(C(=O)N4CCCC4)cc3)cc2N=C(N)C1 | cell viability | 101%
C[C@H](Cn1cnc2c(N)ncnc21)OCP(=O)(O)O | cell viability | 98.6%
COc1cc2c(cc1OC)[C@H](C)NCC2 [Isoquinoline,-6,7-dimethoxy-1-methyl-1,2,3,4-tetrahydro,] | cell viability | 103%
O=c1[nH]c(=O)n([C@H]2C[C@H](O)[C@@H](CO)O2)cc1/C=C/Br | cell viability | 98.5%
CC(C)(Oc1ccc(CCNC(=O)c2ccc(Cl)cc2)cc1)C(=O)O [bezafibrate] | cell viability | 97%

The reported measurements were obtained from the supplement of paper PMC13380429.
